pIC50 overview
- ASSAY SYSTEM: HCV NS3/4A protease (Hepatitis C virus genotype 1a (isolate H77) (HCV))
- PROCEDURE SUMMARY: HCV protease assay (fluorimetric, FRET substrate)
- Assay type: biochemical
- MEASUREMENT CONDITIONS: HCV NS3/4A protease, 30 min at 37° C., triplicate; read-out: IC50 against HCV protease
Give only the number. pIC50 is defined as minus log10 of concentration in molar units.

[Q] I would be grateful if you could share the reported pIC50 for CC(C)CC1C(=O)N(C(CC(C)C)C(=O)N[C@@H](C)C(=O)O)C(=O)C1c1ccc(O)cc1 (stereo partly shown) .
[A] 4.80

Continuing:
[Q] I would be grateful if you could share the reported pIC50 for CSCCC(C(=O)O)N1C(=O)C(CC(C)C)=C(c2ccc(OCC=C(C)C)cc2)C1=O (stereo not shown) .
[A] 4.68

====

- ASSAY SYSTEM: HCV NS3/4A protease (Hepatitis C virus genotype 1a (isolate H77) (HCV), UniProt P27958)
- Sequence (P27958 1027-1657): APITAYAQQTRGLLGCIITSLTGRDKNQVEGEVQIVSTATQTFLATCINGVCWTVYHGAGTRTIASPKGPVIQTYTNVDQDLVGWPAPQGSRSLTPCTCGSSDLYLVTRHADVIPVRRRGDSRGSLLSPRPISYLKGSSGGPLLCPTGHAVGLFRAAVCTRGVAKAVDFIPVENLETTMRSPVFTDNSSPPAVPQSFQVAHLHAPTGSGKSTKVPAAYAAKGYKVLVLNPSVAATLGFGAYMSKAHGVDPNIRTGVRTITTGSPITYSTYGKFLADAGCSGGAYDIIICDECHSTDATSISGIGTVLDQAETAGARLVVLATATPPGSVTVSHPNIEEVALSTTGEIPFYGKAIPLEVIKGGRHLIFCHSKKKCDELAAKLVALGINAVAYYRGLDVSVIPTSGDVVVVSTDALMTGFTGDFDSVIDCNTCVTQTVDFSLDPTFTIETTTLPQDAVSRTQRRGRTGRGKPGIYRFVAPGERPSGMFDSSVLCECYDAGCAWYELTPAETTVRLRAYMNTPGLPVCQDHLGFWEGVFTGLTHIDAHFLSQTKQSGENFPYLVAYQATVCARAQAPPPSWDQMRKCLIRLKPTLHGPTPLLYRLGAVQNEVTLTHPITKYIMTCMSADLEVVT
- Sequence (P27958 1658-1711 partner): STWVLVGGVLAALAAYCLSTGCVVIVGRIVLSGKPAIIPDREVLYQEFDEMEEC
- PROCEDURE SUMMARY: HCV protease assay (fluorimetric, FRET substrate)
- Assay type: biochemical
- MEASUREMENT CONDITIONS: HCV NS3/4A protease, 30 min at 37° C., triplicate; read-out: IC50 against HCV protease
QUANTITY NAME: IC50 (µM)
Report only the number, with the unit µM understood.

The cases that follow already have their IC50 on record.
[Q] I would be grateful if you could share the reported IC50 for CC(C)CC1C(=O)N(CCC(=O)C(N)=O)C(=O)C1c1ccc(O)cc1 (stereo not drawn) .
[A] 7.4

[Q] // next record CCOC(=O)[C@H](Cc1ccc(O)cc1)NC(=O)C(Cc1ccccc1)N1C(=O)C(CC(C)C)=C(c2ccc(OCC=C(C)C)cc2)C1=O (stereo partly drawn)
[A] 100

[Q] // next record CC(C)=CCOc1ccc(C2=C(CC(C)C)C(=O)N(C(C(=O)O)C(C)O)C2=O)cc1 (stereo not drawn)
[A] 18

[Q] // next record CC(C)=CCOc1ccc(C2=C(CC(C)C)C(=O)N(C(C(=O)C(=O)NC(C)C(=O)OC(C)(C)C)c3ccccc3)C2=O)cc1 (stereo not drawn)
[A] 18.3

Continuing:
[Q] I would be grateful if you could share the reported IC50 for CC(C)=CCOc1ccc(C2=C(CC(C)C)C(=O)N(C(C(=O)C(N)=O)c3ccccc3)C2=O)cc1 (stereo not drawn) .
[A] 1.95

[Q] // next record CC(C)CC1C(=O)N(C(C(=O)C(N)=O)c2ccccc2)C(=O)C1c1ccc(O)cc1 (stereo not drawn)
[A] 1.4

[Q] // next record CC(C)CC1C(=O)N(C(CO)C(=O)N[C@@H](Cc2ccccc2)C(=O)O)C(=O)C1c1ccc(O)cc1 (stereo partly drawn)
[A] 132

====

- ASSAY SYSTEM: HCV NS3/4A protease (Hepatitis C virus genotype 1a (isolate H77) (HCV))
- PROCEDURE SUMMARY: HCV protease assay (fluorimetric, FRET substrate)
- Format: biochemical
- MEASUREMENT CONDITIONS: HCV NS3/4A protease, 30 min at 37° C., triplicate; read-out: IC50 against HCV protease
- Description: The HCV protease assay herein was applied to investigate the HCV-protease inhibitory activity of the prepared compounds as described above. The method of the HCV protease assay was described in D. T. Phuong, C. M. Ma, M. Hattori and J. S. Jin: Inhibitory Effects of Antrodins A-E from Antrodia cinnamomea and Their Metabolites on Hepatitis C Virus Protease. […] The fluorimetric analyses were performed on an automated TECAN GENios plate reader with excitation wavelength at 485 nm and emission 530 nm. […]
IC50 overview
Report only the number, with the unit µM understood.

The cases that follow already have their IC50 on record.
[Q] I would be grateful if you could share the reported IC50 for CC(C)CC1C(=O)N(C(Cc2ccccc2)C(=O)N[C@@H](CC(C)C)C(=O)O)C(=O)C1c1ccc(O)cc1 (stereo partly shown) .
[A] 120

[Q] // next record `CC(C)=CCOc1ccc(C2=C(CC(C)C)C(=O)N(CC(=O)C(N)=O)C2=O)cc1`
[A] 153

[Q] // next record CC(C)CC1C(=O)N(C(C)C(=O)O)C(=O)C1c1ccc(O)cc1 (stereo not shown)
[A] 170

[Q] // next record CC(C)CC1C(=O)N(C(Cc2ccccc2)C(=O)N[C@@H](Cc2ccccc2)C(=O)O)C(=O)C1c1ccc(O)cc1 (stereo partly shown)
[A] 192

Shift focus to the following entry.
[Q] I would be grateful if you could share the reported IC50 for CC(C)=CCOc1ccc(C2=C(CC(C)C)C(=O)N(CCC(=O)C(=O)NC(C)C(=O)OC(C)(C)C)C2=O)cc1 (stereo not shown) .
[A] 35.2

====

- ASSAY SYSTEM: HCV NS3/4A protease (Hepatitis C virus genotype 1a (isolate H77) (HCV), UniProt P27958)
- PROCEDURE SUMMARY: HCV protease assay (fluorimetric, FRET substrate)
- Type: biochemical
IC50 overview
Your answer should be a number followed by the unit of measure.

The cases that follow already have their IC50 on record.
[Q] I would be grateful if you could share the reported IC50 for CC(C)=CCOc1ccc(C2=C(CC(C)C)C(=O)N(C(Cc3ccccc3)C(=O)O)C2=O)cc1 (stereo not drawn) [Compound A2] .
[A] 14 µM

[Q] // next record CC(C)=CCOc1ccc(C2=C(CC(C)C)C(=O)N(C(CO)C(=O)O)C2=O)cc1 (stereo not drawn) [Compound A3]
[A] 27 µM

Shift focus to the following entry.
[Q] I would be grateful if you could share the reported IC50 for CC(C)=CCOc1ccc(C2=C(CC(C)C)C(=O)N(C(CC(C)C)C(=O)O)C2=O)cc1 (stereo not drawn) [Compound A1] .
[A] 8.6 µM

====

- ASSAY SYSTEM: HCV NS3/4A protease (Hepatitis C virus genotype 1a (isolate H77) (HCV), UniProt P27958)
- PROCEDURE SUMMARY: HCV protease assay (fluorimetric, FRET substrate)
- Type: biochemical
- MEASUREMENT CONDITIONS: HCV NS3/4A protease, 30 min at 37° C., triplicate; read-out: IC50 against HCV protease
pIC50: −log10 of the molar value.
Criterion: pIC50 meeting or surpassing 4. Met: yes (1). Not met: no (0).

Please review the following examples before continuing.
[Q] Check this compound for pIC50 at or above 4: COC(=O)[C@H](CC(C)C)NC(=O)C(Cc1ccccc1)N1C(=O)C(CC(C)C)=C(c2ccc(OCC=C(C)C)cc2)C1=O (stereo partly shown)
[A] no (0)

[Q] // next record CCOC(=O)[C@H](C)NC(=O)C(=O)C(c1ccccc1)N1C(=O)C(CC(C)C)=C(c2ccc(OCC=C(C)C)cc2)C1=O (stereo partly shown)
[A] no (0)

[Q] // next record CC(C)CC1C(=O)C(C(c2ccccc2)C(O)C(=O)O)C(=O)C1c1ccc(O)cc1 (stereo not shown)
[A] yes (1)

[Q] // next record `CC(C)=CCOc1ccc(C2=C(CC(C)C)C(=O)N(CCC(=O)C(=O)NC3CC3)C2=O)cc1`
[A] yes (1)

[Q] // next record CC(C)CC1C(=O)N(CC(=O)C(N)=O)C(=O)C1c1ccc(O)cc1 (stereo not shown)
[A] no (0)

[Q] // next record CC(C)=CCOc1ccc(C2=C(CC(C)C)C(=O)N(CC(=O)C(=O)NC(C)C(=O)OC(C)(C)C)C2=O)cc1 (stereo not shown)
[A] yes (1)

[Q] // next record CC(C)CC1C(=O)N(CC(=O)C(=O)NC(C)C(=O)O)C(=O)C1c1ccc(O)cc1 (stereo not shown)
[A] yes (1)

[Q] // next record CC(C)CC1C(=O)N(C(Cc2ccccc2)C(=O)O)C(=O)C1c1ccc(O)cc1 (stereo not shown)
[A] yes (1)

[Q] // next record CC(C)=CCOc1ccc(C2=C(CC(C)C)C(=O)N(C(C(=O)C(=O)NC(Cc3ccccc3)C(=O)OC(C)(C)C)c3ccccc3)C2=O)cc1 (stereo not shown)
[A] yes (1)

Attention now turns to another entry.
[Q] Check this compound for pIC50 at or above 4: CC(C)=CCOc1ccc(C2=C(CC(C)C)C(=O)N(CCC(=O)C(=O)NC(Cc3ccccc3)C(=O)OC(C)(C)C)C2=O)cc1 (stereo not shown)
[A] yes (1)

====

IC50 overview
- ASSAY SYSTEM: HCV NS3/4A protease (Hepatitis C virus genotype 1a (isolate H77) (HCV))
- PROCEDURE SUMMARY: HCV protease assay (fluorimetric, FRET substrate)
- Assay type: biochemical
- MEASUREMENT CONDITIONS: HCV NS3/4A protease, 30 min at 37° C., triplicate; read-out: IC50 against HCV protease
- Procedure: The HCV protease assay herein was applied to investigate the HCV-protease inhibitory activity of the prepared compounds as described above. The method of the HCV protease assay was described in D. T. Phuong, C. M. Ma, M. Hattori and J. S. Jin: Inhibitory Effects of Antrodins A-E from Antrodia cinnamomea and Their Metabolites on Hepatitis C Virus Protease. […] The fluorimetric analyses were performed on an automated TECAN GENios plate reader with excitation wavelength at 485 nm and emission 530 nm. […]
Report only the number, with the unit µM understood.

[Q] I would be grateful if you could share the reported IC50 for CC(C)=CCOc1ccc(C2=C(CC(C)C)C(=O)N(CC(O)C(=O)O)C2=O)cc1 (centres unmarked) .
[A] 8.7

[Q] // next record CC(C)=CCOc1ccc(C2=C(CC(C)C)C(=O)N(C(CCC(=O)O)C(=O)O)C2=O)cc1 (centres unmarked)
[A] 19

[Q] // next record `CC(C)=CCOc1ccc(C2=C(CC(C)C)C(=O)N(CCC(=O)C(N)=O)C2=O)cc1`
[A] 12.1

[Q] // next record CC(C)CC1C(=O)N(C(C(=O)O)C(C)C)C(=O)C1c1ccc(O)cc1 (centres unmarked)
[A] 85

[Q] // next record CC(C)CC1C(=O)N(C(CO)C(=O)O)C(=O)C1c1ccc(O)cc1 (centres unmarked)
[A] 25

Continuing:
[Q] I would be grateful if you could share the reported IC50 for CC(C)=CCOc1ccc(C2=C(CC(C)C)C(=O)N(CCC(O)C(=O)O)C2=O)cc1 (centres unmarked) .
[A] 15.6

[Q] // next record CC(C)=CCOc1ccc(C2=C(CC(C)C)C(=O)N(C(C(=O)O)C(C)C)C2=O)cc1 (centres unmarked)
[A] 23.3

[Q] // next record CCOC(=O)C(Cc1ccccc1)NC(=O)C(Cc1ccccc1)N1C(=O)C(CC(C)C)=C(c2ccc(OCC=C(C)C)cc2)C1=O (centres unmarked)
[A] 100

[Q] // next record CC(C)CC1C(=O)N(CC(C(=O)C(=O)NC(C)C(=O)O)c2ccccc2)C(=O)C1c1ccc(O)cc1 (centres unmarked)
[A] 14.6

[Q] // next record CC(C)CC1C(=O)N(C(CC(C)C)C(=O)N[C@@H](Cc2ccccc2)C(=O)O)C(=O)C1c1ccc(O)cc1 (some centres unmarked)
[A] 27

[Q] // next record CC(C)=CCOc1ccc(C2=C(CC(C)C)C(=O)N(C(c3ccccc3)C(O)C(=O)O)C2=O)cc1 (centres unmarked)
[A] 5

[Q] // next record CC(C)CC1C(=O)N(CC(O)C(=O)O)C(=O)C1c1ccc(O)cc1 (centres unmarked)
[A] 185
